Reported pKd values are given for each entry in this list.
- Target Or Test System: T1, human mature TGFβ1 (Homo sapiens, UniProt P01137)
- T1 construct: Transforming Growth Factor-beta 1, human, mature form (cut from the precursor); also called TGFb1; source: bought: PeproTech
- T1 sequence (P01137 279-390): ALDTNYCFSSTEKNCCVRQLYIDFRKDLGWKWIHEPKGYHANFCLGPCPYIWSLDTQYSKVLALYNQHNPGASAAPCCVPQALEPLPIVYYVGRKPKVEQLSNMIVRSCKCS
- Test Name: SPR; Biacore T200; antibody captured on a Protein A sensor chip (about 90 RU); mature TGFβ isoform injected, five-fold dilutions 0.008 nM to 5 nM; HBS-EP pH 7.4, 150 mM NaCl; 37 °C; 100 μl/min; 3 min association, 60 min dissociation; one-to-one Langmuir model, global fit
- Protocol Conditions: both partners purified
pKd: −log10 of the molar value.

Prompt line: Please look up its pKd: h4A11.v7.2 (antibody, V domains shown, as the VH of m12 (h4A11.v7); numbers count on: Kabat numbering of the heavy chain; as the VL of m12 (h4A11.v7); human IgG1; also called v7.2_S19R, S79W; source: Expi293F, transient, purified (Protein A, SEC)) VH: EQQLQESGPGLVKPSETLRLTCTVTGFSLSSYTVNWVRQPAGKGLEWIGYISYGGSAYYASWANGRFTISKDSSKNQVWLKLSSVTAADTAVYFCARHMQVGGAPTGSMAAFDPWGPGTLVTVSS VL: EAVLTQSPGTLSLSPGERATLSCQSSQSVYNNNYLSWFQQKPGQPPRLLIYGASTLTSGVPDRFSGSGSGTDFTLTISRLEPEDFAVYYCAGGYSGSSDKYAFGGGTKVEIK
Response line: < 8.30

Prompt line: Please look up its pKd: h4A11.v7.1 (antibody, V domains shown, as the VH of m12 (h4A11.v7); numbers count on: Kabat numbering of the heavy chain; as the VL of m12 (h4A11.v7); human IgG1; also called v7.1_S19R, S79Y; source: Expi293F, transient, purified (Protein A, SEC)) VH: EQQLQESGPGLVKPSETLRLTCTVTGFSLSSYTVNWVRQPAGKGLEWIGYISYGGSAYYASWANGRFTISKDSSKNQVYLKLSSVTAADTAVYFCARHMQVGGAPTGSMAAFDPWGPGTLVTVSS VL: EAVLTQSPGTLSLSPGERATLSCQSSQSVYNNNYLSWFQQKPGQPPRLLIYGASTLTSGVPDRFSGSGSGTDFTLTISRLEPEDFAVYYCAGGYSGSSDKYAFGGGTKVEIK
Response line: < 8.30

Now, please, on to the next binder.
Prompt line: Please look up its pKd: h4A11.v2.3 (antibody, V domains shown, as the VH of m7 (h4A11.v2) with the stated change; numbers count on: Kabat numbering of the heavy chain; as the VL of m7 (h4A11.v2); human IgG1; also called v2.3_Q81A; source: Expi293F, transient, purified (Protein A, SEC)) VH: EQQLVESGGGLVQPGGSLRLSCAVSGFSLSSYTVNWVRQAPGKGLEWIGYISYGGSAYYASWANGRFTISKDSAKNSVYLAMNSLRAEDTAVYFCARHMQVGGAPTGSMAAFDPWGPGTLVTVSS VL: DAQLTQSPSSLSASVGDRVTITCQSSQSVYNNNYLSWFQQKPGKPPKLLIYGASTLTSGVPSRFSGSGSGTDFTLTISSLQPEDFATYYCAGGYSGSSDKYAFGGGTKVEIK
Response line: < 8.30
